Biological target: AChE from electric eel (Electrophorus electricus) (Electrophorus electricus)
Construct: purchased Sigma-Aldrich GmbH (Steinheim, Germany)
Sequence (O42275 24-633): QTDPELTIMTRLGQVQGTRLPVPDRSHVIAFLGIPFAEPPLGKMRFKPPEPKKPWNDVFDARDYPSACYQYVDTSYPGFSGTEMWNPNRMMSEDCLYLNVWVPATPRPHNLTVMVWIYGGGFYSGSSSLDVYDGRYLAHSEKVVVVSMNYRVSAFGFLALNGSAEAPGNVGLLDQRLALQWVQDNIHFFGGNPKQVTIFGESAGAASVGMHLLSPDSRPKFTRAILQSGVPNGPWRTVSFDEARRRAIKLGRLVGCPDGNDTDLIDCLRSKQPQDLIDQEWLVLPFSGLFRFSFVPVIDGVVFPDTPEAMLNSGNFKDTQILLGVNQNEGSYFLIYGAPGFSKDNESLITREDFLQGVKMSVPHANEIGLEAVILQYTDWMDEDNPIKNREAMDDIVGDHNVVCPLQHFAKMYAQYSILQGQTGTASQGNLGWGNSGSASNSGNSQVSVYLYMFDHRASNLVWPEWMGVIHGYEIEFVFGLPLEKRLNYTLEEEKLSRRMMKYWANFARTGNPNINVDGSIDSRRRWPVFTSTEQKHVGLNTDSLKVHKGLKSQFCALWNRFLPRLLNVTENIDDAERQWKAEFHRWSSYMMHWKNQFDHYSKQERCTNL
Assay: HPTLC-(Ox)-AChE-I assay, immersion method (plates immersed in AChE solution)
Format: biochemical
Details: without oxidation
Measured Parameter: LOD immersion method (first detected AChE-I peak with signal-to-noise ratio ≥ 3) (ng/spot)

INSERT INTO results (molecule, target_or_test_system, numeric_result) VALUES
  ('CCOC(=O)CC(SP(=O)(OC)OC)C(=O)OCC (centres unmarked) [Malaoxon, malaoxon]', 'AChE from electric eel (Electrophorus electricus) (Electrophorus electricus)', 0.1),
  ('CCOP(=S)(OCC)Oc1nc(Cl)c(Cl)cc1Cl [Chlorpyrifos, chlorpyrifos]', 'AChE from electric eel (Electrophorus electricus) (Electrophorus electricus)', 500),
  ('CCOP(=O)(OCC)Oc1nc(Cl)c(Cl)cc1Cl [Chlorpyrifos-oxon]', 'AChE from electric eel (Electrophorus electricus) (Electrophorus electricus)', 0.25),
  ('CCOC(=O)CC(SP(=S)(OC)OC)C(=O)OCC (centres unmarked) [Malathion, malathion]', 'AChE from electric eel (Electrophorus electricus) (Electrophorus electricus)', 250),
  ('CCOP(=S)(OCC)Oc1ccc([N+](=O)[O-])cc1 [Parathion, parathion]', 'AChE from electric eel (Electrophorus electricus) (Electrophorus electricus)', 500);
